Attribute: AUC
# assay-details: In vivo pharmacokinetic study in rats, plasma (IV and PO)
# Design: species or system Sprague-Dawley rats
# experimental-conditions: male, Sprague-Dawley, plasma; rat, IV, dose IV = 5 mg/kg (Compound XIV: IV = 15)
Numbers only; they are read as ng·h/mL.

Solved entries (count: 2):
compound	metric-name	result-number
C=C[C@]12OC(=O)N(CCCCn3cnc(-c4cnccc4Cl)c3)[C@@H]1[C@@H](C)C(=O)[C@H](C)C[C@](C)(OC)[C@H](OC1O[C@H](C)C[C@H](N(C)C)[C@H]1O)[C@@H](C)C(=O)[C@@H](C)C(=O)O[C@@H]2CC (stereo partly drawn)	AUC	2100
C=C[C@]12OC(=O)N(CCCCn3cnc(-c4ccc(Cl)nc4)c3)[C@@H]1[C@@H](C)C(=O)[C@H](C)C[C@](C)(OC)[C@H](OC1O[C@H](C)C[C@H](N(C)C)[C@H]1O)[C@@H](C)C(=O)[C@@H](C)C(=O)O[C@@H]2CC (stereo partly drawn)	AUC	2300

# evaluate next
Prompt: Please report AUC for the following compound: CC[C@H]1OC(=O)[C@@](C)(F)C(=O)[C@H](C)[C@@H](OC2O[C@H](C)C[C@H](N(C)C)[C@H]2O)[C@@](C)(OC)C[C@@H](C)C(=O)[C@H](C)[C@H]2N(CCCCn3cnc(-c4ccc(C)nc4)c3)C(=O)O[C@]12CC (stereo partly drawn)
Response: 3300

---

# Test system: Haemophilus influenzae Hain_49247
# assay-details: MIC, broth microdilution (NCCLS)
# Format: cell-based
# experimental-conditions: Table 7, Strain ID M (Table 6): H. influenzae Hain_49247; unit assumed
metric-name: MIC (µg/mL)
Hi! Could you send only the number? It should be in µg/mL, unit omitted.

compound	result-number
CC[C@H]1OC(=O)[C@H](C)C(=O)[C@H](C)[C@@H](OC2O[C@H](C)C[C@H](N(C)C)[C@H]2O)[C@@](C)(OC)C[C@@H](C)C(=O)[C@H](C)[C@H]2N(CCCC(C)(C)n3cnc(-c4cccnc4)c3)C(=O)O[C@]12CC (stereo partly shown)	6.25
CC[C@H]1OC(=O)[C@@](C)(F)C(=O)[C@H](C)[C@@H](OC2O[C@H](C)C[C@H](N(C)C)[C@H]2O)[C@@](C)(OC)C[C@@H](C)C(=O)[C@H](C)[C@H]2N(CCCC(C)(C)n3cnc4ncccc43)C(=O)O[C@]12CC (stereo partly shown)	3.13
CC[C@H]1OC(=O)[C@@](C)(F)C(=O)[C@H](C)[C@@H](OC2O[C@H](C)C[C@H](N(C)C)[C@H]2O)[C@@](C)(OC)C[C@@H](C)C(=O)[C@H](C)[C@H]2N(CCCCc3ccc4ccccc4n3)C(=O)O[C@]12CC (stereo partly shown)	3.13

Would you kindly look at the next entry?
Prompt: Identify the reported MIC for the following entry. C/C=C\[C@]12OC(=O)N(CCCCn3cnc(-c4cccnc4)c3)[C@@H]1[C@@H](C)C(=O)[C@H](C)C[C@](C)(OC)[C@H](OC1O[C@H](C)C[C@H](N(C)C)[C@H]1O)[C@@H](C)C(=O)[C@](C)(F)C(=O)O[C@@H]2CC (stereo partly shown)
Response: 6.25

---

# Test system: Streptococcus pneumoniae Stpn_297-749
# assay-details: MIC, broth microdilution (NCCLS)
# Assay type: cell-based
# experimental-conditions: Table 5, Strain ID F (Table 4): S. pneumoniae Stpn_297-749 Pen R
metric-name: MIC

Examples with their reported MIC follow.
compound	MIC
CC[C@H]1OC(=O)[C@H](C)C(=O)[C@H](C)[C@@H](OC2O[C@H](C)C[C@H](N(C)C)[C@H]2O)[C@@](C)(OC)C[C@@H](C)C(=O)[C@H](C)[C@H]2NC(=O)O[C@@H]21 (stereo partly shown)	=0.05
CC[C@H]1OC(=O)[C@H](C)C(=O)[C@H](C)[C@@H](OC2O[C@H](C)C[C@H](N(C)C)[C@H]2O)[C@@](C)(OC)C[C@@H](C)C(=O)[C@H](C)[C@@H]2[C@@H]1OC(=O)N2CCCCc1ccnc2ccccc12 (stereo partly shown) [Compound 6220]	=0.05
CC[C@H]1OC(=O)[C@H](C)C(=O)[C@H](C)[C@@H](OC2O[C@H](C)C[C@H](N(C)C)[C@H]2O)[C@@](C)(OC)C[C@@H](C)C(=O)[C@H](C)[C@@H]2[C@@H]1OC(=O)N2CCCn1cnc(-c2ccccc2)c1 (stereo partly shown)	=0.5
CC[C@H]1OC(=O)[C@H](C)C(=O)[C@H](C)[C@@H](OC2O[C@H](C)C[C@H](N(C)C)[C@H]2O)[C@@](C)(OC)C[C@@H](C)C(=O)[C@H](C)[C@H]2N(CCCCn3cnc(-c4ccccc4)c3)C(=O)O[C@]12CC (stereo partly shown)	=0.05

Prompt: Give a short answer stating reported MIC for CC[C@H]1OC(=O)[C@H](C)C(=O)[C@H](C)[C@@H](OC2O[C@H](C)C[C@H](N(C)C)[C@H]2O)[C@@](C)(OC)C[C@@H](C)C(=O)[C@H](C)[C@@H]2[C@@H]1OC(=O)N2CCCCn1cnc(-c2ccccc2)c1 (stereo partly shown) [Compound 6221] .
Response: =0.05

Prompt: For the compound CC[C@H]1OC(=O)[C@H](C)C(=O)[C@H](C)[C@@H](OC2O[C@H](C)C[C@H](N(C)C)[C@H]2O)[C@@](C)(OC)C[C@@H](C)C(=O)[C@H](C)[C@@H]2[C@@H]1OC(=O)N2CCCCn1cnc2ncccc21 (stereo partly shown) , give its measured MIC value.
Response: =0.5

Prompt: Give the value of MIC reported for the following: CC[C@H]1OC(=O)[C@H](C)C(=O)[C@H](C)[C@@H](OC2O[C@H](C)C[C@H](N(C)C)[C@H]2O)[C@@](C)(OC)C[C@@H](C)C(=O)[C@H](C)[C@@H]2[C@@H]1OC(=O)N2CCCCc1ccc2ccccc2n1 (stereo partly shown)
Response: =0.05

---

# Test system: Staphylococcus epidermidis Step_f50654
# assay-details: MIC, broth microdilution (NCCLS)
# Assay type: cell-based
# experimental-conditions: Table 10, Strain ID D (Table 8): Staphylococcus epidermidis Step_f50654; in µg/mL (unit assumed)
Overview of recorded MIC for various compounds
Keep it simple and answer with nothing but the number.

Recorded MIC, per entry:
compound	MIC
C=C[C@]12OC(=O)N(CCCCn3cnc(-c4ccc(N(C)C)nc4)c3)[C@@H]1[C@@H](C)C(=O)[C@H](C)C[C@](C)(OC)[C@H](OC1O[C@H](C)C[C@H](N(C)C)[C@H]1O)[C@@H](C)C(=O)[C@@H](C)C(=O)O[C@@H]2CC (some centres unmarked)	0.2
C=C[C@]12OC(=O)N(CCCCn3cc(-c4ccc(OC)nc4)nc3C)[C@@H]1[C@@H](C)C(=O)[C@H](C)C[C@](C)(OC)[C@H](OC1O[C@H](C)C[C@H](N(C)C)[C@H]1O)[C@@H](C)C(=O)[C@@H](C)C(=O)O[C@@H]2CC (some centres unmarked)	0.2
C=C[C@]12OC(=O)N(CCCCn3cnc(-c4ccc(OCC)nc4)c3)[C@@H]1[C@@H](C)C(=O)[C@H](C)C[C@](C)(OC)[C@H](OC1O[C@H](C)C[C@H](N(C)C)[C@H]1O)[C@@H](C)C(=O)[C@@H](C)C(=O)O[C@@H]2CC (some centres unmarked)	0.4
CC[C@H]1OC(=O)[C@@](C)(F)C(=O)[C@H](C)[C@@H](OC2O[C@H](C)C[C@H](N(C)C)[C@H]2O)[C@@](C)(OC)C[C@@H](C)C(=O)[C@H](C)[C@H]2N(CCCCn3cnc(-c4ccc(C)nc4)c3)C(=O)O[C@]12CC (some centres unmarked)	0.4
C=C[C@]12OC(=O)N(CCCCn3cnc(-c4ccc(F)nc4)c3)[C@@H]1[C@@H](C)C(=O)[C@H](C)C[C@](C)(OC)[C@H](OC1O[C@H](C)C[C@H](N(C)C)[C@H]1O)[C@@H](C)C(=O)[C@@H](C)C(=O)O[C@@H]2CC (some centres unmarked)	0.1
CC[C@H]1OC(=O)[C@H](C)C(=O)[C@H](C)[C@@H](OC2O[C@H](C)C[C@H](N(C)C)[C@H]2O)[C@@](C)(OC)C[C@@H](C)C(=O)[C@H](C)[C@H]2N(CCCCn3cnc(-c4ccc(F)nc4)c3)C(=O)O[C@]12CC (some centres unmarked)	0.2
C=C[C@]12OC(=O)N(CCCCn3cnc(-c4ccc(OC)nc4)c3)[C@@H]1[C@@H](C)C(=O)[C@H](C)C[C@](C)(OC)[C@H](OC1O[C@H](C)C[C@H](N(C)C)[C@H]1O)[C@@H](C)C(=O)[C@@H](C)C(=O)O[C@@H]2CC (some centres unmarked)	0.2

Prompt: // output MIC; input CC[C@H]1OC(=O)[C@H](C)C(=O)[C@H](C)[C@@H](OC2O[C@H](C)C[C@H](N(C)C)[C@H]2O)[C@@](C)(OC)C[C@@H](C)C(=O)[C@H](C)[C@H]2N(CCCCn3cnc(-c4ccc(C)nc4)c3)C(=O)O[C@]12CC (some centres unmarked) ; system Staphylococcus epidermidis Step_f50654
Response: 0.4

Numbers sourced from patent US7332476B2.
